# System: cells (EV71 assay)
# assay info: Cell toxicity (CC50) in EV71 assay
assay metric: CC50 (µM)
Report only the number, with the unit µM understood.

{"entry smiles": "COc1ccc(-c2sc(NC(C)(C)c3ccccc3)nc2C)cc1S(=O)(=O)NC1CCN(C(C)=O)CC1", "experimental system": "cells (EV71 assay)", "CC50 [µM]": 100}

Exam item: Please look up its CC50: COc1ccc(-c2sc(NC3(C4CCOCC4)CC3)nc2C)cc1S(=O)(=O)Nc1ccc(Cl)cc1Cl
Marked response: 37

Exam item: Record: COc1ccc(-c2sc(NC(C)(C)C3CCOCC3)nc2C)cc1S(=O)(=O)Nc1cccnc1C
Marked response: 86

Exam item: Record: COc1ccc(-c2sc(NC(C)(C)C3CCOCC3)nc2C)cc1S(=O)(=O)Nc1ccc(F)cc1Cl
Marked response: 36

Exam item: Record: COc1ccc(-c2sc(NC(C)(C)c3cccnc3)nc2C)cc1S(=O)(=O)Nc1c(C)cccc1F
Marked response: 99

Exam item: Record: COc1ccc(-c2sc(NC(C)(C)c3ccccn3)nc2C)cc1S(=O)(=O)Nc1c(C)cccc1F
Marked response: 77

---

# Test system: HeLa S3 cells
# assay info: Cell toxicity (CC50) in HRV assay
# setup conditions: human
assay metric: CC50
Record the result as number plus unit.

Exam item: Please look up its CC50: COc1ccc(-c2sc(NC(C)(C)C3CCOCC3)nc2C)cc1S(=O)(=O)Nc1cccnc1C
Marked response: 70 µM

Exam item: Record: COc1ccc(-c2sc(NC(C)(C)C3CCOCC3)nc2C)cc1S(=O)(=O)Nc1ccc(F)cc1Cl
Marked response: 17 µM

Exam item: Record: COc1ccc(-c2sc(NC3(C4CCOCC4)CC3)nc2C)cc1S(=O)(=O)Nc1ccc(Cl)cc1Cl
Marked response: 36 µM

Exam item: Record: COc1ccc(-c2sc(NC(C)(C)c3cccnc3)nc2C)cc1S(=O)(=O)Nc1c(C)cccc1F
Marked response: 47 µM

Exam item: Record: COc1ccc(-c2sc(NC(C)(C)c3ccccn3)nc2C)cc1S(=O)(=O)Nc1c(C)cccc1F
Marked response: 52 µM

Exam item: Record: COc1ccc(-c2sc(NC(C)(C)c3ccccc3)nc2C)cc1S(=O)(=O)NC1CCN(S(C)(=O)=O)CC1
Marked response: 95 µM

---

# assay info: Cell toxicity (CC50) in HRV assay
# setup conditions: human, HRV CC50
Entries are sorted into classes by CC50 as follows: label 0 = under 40 µM, label 1 = from 40 µM up to 70 µM, label 2 = 70 µM and over

{"compound": "COc1ccc(-c2sc(NC(C)(C)C3CCOCC3)nc2C)cc1S(=O)(=O)Nc1c(F)cccc1CO", "qualitative label": "label 0"}
{"compound": "COc1ccc(-c2sc(NC(C)(C)c3ccccc3)nc2C)cc1S(=O)(=O)NC1CCN(C(C)=O)CC1", "qualitative label": "label 2"}
{"compound": "COc1ccc(-c2sc(NC(C)(C)C3CCNCC3)nc2C)cc1S(=O)(=O)Nc1cccnc1C", "qualitative label": "label 2"}
{"compound": "COc1ccc(-c2sc(NC(C)(C)c3ccccn3)nc2C)cc1S(=O)(=O)Nc1c(C)cccc1F", "qualitative label": "label 1"}
{"compound": "COc1ccc(-c2sc(NC(C)C3CCOCC3)nc2C)cc1S(=O)(=O)Nc1c(C)cccc1F (stereo not drawn)", "qualitative label": "label 0"}
{"compound": "COc1ccc(-c2sc(NC(C)(C)c3ccccc3)nc2C)cc1S(=O)(=O)Nc1ccncc1C(F)(F)F", "qualitative label": "label 0"}
{"compound": "COc1ccc(-c2sc(NC(C)(C)c3ccncc3)nc2C)cc1S(=O)(=O)Nc1c(C)cccc1F", "qualitative label": "label 0"}
{"compound": "COc1ccc(-c2sc(NC34CC(C3)C4)nc2C)cc1S(=O)(=O)Nc1c(C)cccc1F", "qualitative label": "label 0"}
{"compound": "COC(=O)N1CCC(NS(=O)(=O)c2cc(-c3sc(NC(C)(C)c4ccccc4)nc3C)ccc2OC)CC1", "qualitative label": "label 0"}
{"compound": "COc1ccc(-c2oc(NC(C)(C)c3ccccc3)nc2C)cc1S(=O)(=O)Nc1c(C)cccc1F", "qualitative label": "label 1"}

Exam item: Place this compound in its band: COc1ccc(-c2oc(NC(C)(C)c3ccccc3)nc2C)cc1S(=O)(=O)Nc1ccncc1C
Marked response: label 1

Exam item: Record: COc1ccc(-c2sc(NC(C)(C)C3CCOCC3)nc2C)cc1S(=O)(=O)Nc1c(F)cccc1C(F)F
Marked response: label 1

---

# assay info: Microsomal stability, human liver microsomes
# Assay type: in vitro ADME
# setup conditions: with ritonavir (concentration not stated), + Ritonavir, read-out: HLM/MLM (t ½ min) + Ritonavir: HLM
assay metric: half-life (h)
Report only the number, with the unit h understood.

Exam item: Please look up its half-life: COc1ccc(-c2sc(NC(C)(C)C3CCOCC3)nc2C)cc1S(=O)(=O)Nc1c(C)cccc1F
Marked response: 1.13

---

# assay info: Cell toxicity (CC50) in EV71 assay
# setup conditions: EV71 CC50
assay metric: CC50

Solved entries (count: 5):
{"molecule": "COc1ccc(-c2sc(NC(C)(C)C3CCOCC3)nc2C)cc1S(=O)(=O)Nc1c(F)cccc1C(F)F [Compound S-31]", "value observed": "70.6 µM"}
{"molecule": "COc1ccc(-c2sc(NC(C)(C)C3CCOCC3)nc2C)cc1S(=O)(=O)Nc1nccn1C [Compound S-29]", "value observed": "100 µM"}
{"molecule": "COc1ccc(-c2sc(NC(C)(C)C3CCOCC3)nc2C)cc1S(=O)(=O)NC1CCN(C(C)=O)CC1 [Compound S-12]", "value observed": "53.8 µM"}
{"molecule": "COc1ccc(-c2sc(NC(C)(C)C3CCOCC3)nc2C)cc1S(=O)(=O)NC1CCN(C(=O)OC(F)(F)F)CC1 [Compound S-20]", "value observed": "18.9 µM"}
{"molecule": "COc1ccc(-c2sc(NC(C)(C)C3CCOCC3)nc2C)cc1S(=O)(=O)Nc1cccnc1OC [Compound S-18]", "value observed": "43.2 µM"}

Exam item: Please look up its CC50: COc1ccc(-c2sc(NC(C)(C)c3ccccn3)nc2C)cc1S(=O)(=O)Nc1c(C)cccc1F [Compound S-45]
Marked response: 87.3 µM

Exam item: Record: COCC(C)(C)Nc1nc(C)c(-c2ccc(OC)c(S(=O)(=O)Nc3c(C)cccc3F)c2)s1 [Compound S-63]
Marked response: 83.8 µM

---

# assay info: Microsomal stability, mouse liver microsomes
# Assay type: in vitro ADME
# setup conditions: read-out: HLM/MLM (t ½ min): MLM
assay metric: half-life (min)
Report only the number, with the unit min understood.

{"entry smiles": "COc1ccc(-c2sc(NC(C)(C)c3ccccc3)nc2C)cc1S(=O)(=O)Nc1c(C)cccc1F", "unit spec": "min", "half-life": 22}

Exam item: Please look up its half-life: COc1ccc(-c2sc(NC(C)(C)C3CCOCC3)nc2C)cc1S(=O)(=O)Nc1c(C)cccc1F
Marked response: 8

Exam item: Record: COc1ccc(-c2sc(NC(C)(C)c3cccnc3)nc2C)cc1S(=O)(=O)Nc1c(C)cccc1F
Marked response: 67

Exam item: Record: COc1ccc(-c2sc(NC(C)(C)c3ccccn3)nc2C)cc1S(=O)(=O)Nc1c(C)cccc1F
Marked response: 10

Exam item: Record: COc1ccc(-c2sc(NC(C)(C)C3CCOCC3)nc2C)cc1S(=O)(=O)Nc1cccnc1C
Marked response: 58

Exam item: Record: COc1ccc(-c2sc(NC(C)(C)c3ccccc3)nc2C)cc1S(=O)(=O)NC1CCN(C(C)=O)CC1
Marked response: 14

---

# assay info: Microsomal stability, human liver microsomes
# Format: in vitro ADME
# setup conditions: read-out: HLM/MLM (t ½ min): HLM
assay metric: log10 half-life (log10 of the value in min)
// do not treat as linear: log10 of half-life, unit min

Solved entries (count: 3):
{"compound": "COc1ccc(-c2sc(NC(C)(C)c3ccccn3)nc2C)cc1S(=O)(=O)Nc1c(C)cccc1F [Compound S-45]", "value observed": 1.15}
{"compound": "COc1ccc(-c2sc(NC(C)(C)C3CCOCC3)nc2C)cc1S(=O)(=O)Nc1cccnc1C [Compound S-3]", "value observed": 1.76}
{"compound": "COc1ccc(-c2sc(NC(C)(C)c3ccccc3)nc2C)cc1S(=O)(=O)NC1CCN(C(C)=O)CC1 [Compound S-42]", "value observed": 1.00}

Exam item: Please look up its log10 half-life: COc1ccc(-c2sc(NC(C)(C)c3ccccc3)nc2C)cc1S(=O)(=O)Nc1c(C)cccc1F [Compound S-32]
Marked response: 1.23

Exam item: Record: COc1ccc(-c2sc(NC(C)(C)C3CCOCC3)nc2C)cc1S(=O)(=O)Nc1c(C)cccc1F [Compound S-1]
Marked response: 0.78

Exam item: Record: COc1ccc(-c2sc(NC(C)(C)c3cccnc3)nc2C)cc1S(=O)(=O)Nc1c(C)cccc1F [Compound S-39]
Marked response: 1.92
